biological target: BChE (Homo sapiens)
Sequence (P06276 29-602, species assumed): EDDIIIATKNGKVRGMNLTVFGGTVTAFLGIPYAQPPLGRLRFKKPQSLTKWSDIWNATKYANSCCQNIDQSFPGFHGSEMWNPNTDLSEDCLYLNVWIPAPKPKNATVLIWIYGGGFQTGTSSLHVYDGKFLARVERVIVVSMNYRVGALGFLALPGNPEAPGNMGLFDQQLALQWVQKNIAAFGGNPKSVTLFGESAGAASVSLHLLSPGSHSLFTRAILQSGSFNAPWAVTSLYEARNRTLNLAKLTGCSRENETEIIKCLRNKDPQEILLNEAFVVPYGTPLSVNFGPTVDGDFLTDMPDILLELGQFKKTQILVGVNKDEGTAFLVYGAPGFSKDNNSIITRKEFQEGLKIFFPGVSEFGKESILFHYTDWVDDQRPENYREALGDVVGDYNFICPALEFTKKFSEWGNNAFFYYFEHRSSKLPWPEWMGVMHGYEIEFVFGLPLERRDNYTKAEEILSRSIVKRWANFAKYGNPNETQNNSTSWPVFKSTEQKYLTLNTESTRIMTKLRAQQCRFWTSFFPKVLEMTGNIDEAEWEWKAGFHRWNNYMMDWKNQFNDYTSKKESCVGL

# record-smiles, Ki / nM
measured = [
    ("O=C(/C=C/c1cccc(S(=O)(=O)n2ccc3cc(OCCCN4CCCCC4)ccc32)c1)NO", 2510),
]

----------
experiment: Cell viability (MTT) of TMZ and MTP150 alone and combined; assay type: cell-based; details: 250 µM TMZ, 0.5 µM MTP150, 72 h
result-type: viability at 72 h (%)

# record-smiles, meas-value
records = [
    ("O=C(/C=C/c1cccc(S(=O)(=O)n2ccc3cc(OCCCN4CCCCC4)ccc32)c1)NO", 37),
]
